Listed next: entries and their corresponding IC50.
test system: PC-3; test: Cytotoxicity against human PC3 cells; type: functional, cell-based
Numeric answer only, unit µM assumed.

Worked examples, 5 compounds total:
MOL_SMILES	EXPERIMENTAL_VALUE
COc1ccc(Cn2cc(/C=N\NC(=O)c3c[nH]c4ccccc34)c3ccc(F)cc32)cc1	18.4
COc1ccc2c(c1)c(/C=N\NC(=O)c1c[nH]c3ccc(Br)cc13)cn2Cc1ccc(Cl)cc1	15.9
COc1ccc(Cn2cc(/C=N\NC(=O)c3cn(C)c4ccccc34)c3ccc(F)cc32)cc1	12.8
O=C(N/N=C\c1cn(Cc2ccc(Cl)cc2)c2cc(F)ccc12)c1c[nH]c2ccc(Br)cc12	12.4
COc1ccc2c(c1)c(/C=N\NC(=O)c1c[nH]c3ccccc13)cn2Cc1ccc(Cl)cc1	30.3

Prompt: Please report the recorded IC50 for O=C(N/N=C\c1cn(Cc2ccc(Cl)cc2)c2ccccc12)c1c[nH]c2ccccc12 .
Completion: 16.2

Prompt: Please report the recorded IC50 for COc1ccc2c(c1)c(/C=N\NC(=O)c1cn(C)c3ccccc13)cn2Cc1ccc(Cl)cc1 .
Completion: 21.2

Prompt: Please report the recorded IC50 for COc1cccc2c1C(=O)c1c(O)c3c(c(O)c1C2=O)C[C@@](O)(C(=O)CO)C[C@@H]3O[C@H]1C[C@H](N)[C@H](O)[C@H](C)O1 .
Completion: 62.3

Prompt: Please report the recorded IC50 for Cn1cc(C(=O)N/N=C\c2cn(Cc3ccc(Cl)cc3)c3cc(F)ccc23)c2ccccc21 .
Completion: 22.1

Prompt: Please report the recorded IC50 for COc1ccc(Cn2cc(/C=N\NC(=O)c3c[nH]c4ccccc34)c3cc(OC)ccc32)cc1 .
Completion: 13.6

Numbers sourced from ChEMBL document CHEMBL1932984.
